test: Selectivity index, ratio of IC50 for human HaCaT cells to IC50 for antibacterial activity against Enterococcus faecium; assay type: toxicity; conditions: read-out: Ratio IC50
Please respond with reported selectivity ratio for every item in the list.
Numbers only.

| smi | selectivity ratio |
| --- | --- |
| COc1cc(-c2coc3c(CCC(C)(C)O)c(O)cc(O)c3c2=O)ccc1O | 2.6 |

Let us move to another entry and its selectivity ratio.
## Input Any idea what its selectivity ratio is? The compound is COc1ccc(-c2coc3c(CC=C(C)C)c(O)cc(O)c3c2=O)cc1O
## Output 5.5

====

Please respond with reported selectivity ratio for every item in the list.
experiment: Selectivity index, ratio of IC50 for human HaCaT cells to IC50 for human A-375 cells; assay type: toxicity; conditions: read-out: Ratio IC50
Numbers only.

Guide cases for selectivity ratio, answers given:
| smi | reported-result |
| --- | --- |
| COc1ccc(-c2coc3c(CC=C(C)C)c(O)cc(O)c3c2=O)cc1O | 1.2 |
| CC(C)(O)CCc1c(O)cc(O)c2c(=O)c(-c3ccc(O)cc3)coc12 | 0.8 |
| CC(C)=CCc1c(O)cc(O)c2c(=O)c(-c3ccc(O)cc3)coc12 | 1.8 |

Here are 2 molecules. What values of selectivity ratio were reported for them?
1. COc1cc(-c2coc3c(CC=C(C)C)c(O)cc(O)c3c2=O)ccc1O
2. COc1cc(-c2coc3c(CCC(C)(C)O)c(O)cc(O)c3c2=O)ccc1O

## Output
1. 1.4
2. 0.8

Reference source: ChEMBL document CHEMBL5143619
